TGT: recombinant RORγ Ligand Binding Domain (LBD) (Homo sapiens (Human))
ASSAY NAME: Radio-Ligand RORγ Binding Assay (Assay 1)
CONDITION DETAILS: cell-free competition with 25-hydroxy [26,27-3H]-cholesterol, SPA; read-out: RORγ Binding Ki Range*
pKi: −log10 of the molar value.
ENDPOINT NAME: pKi

Worked cases, answers included:
Recorded pKi (compound `CC(C)[C@H]1c2ncc(C(=O)NCc3cnn(C)c3)cc2CN1Cc1ccc(C(F)(F)F)cc1` ): 6.00 to 7.00

Recorded pKi (compound `CC(C)[C@H]1c2ncc(C(=O)NCc3ccnn3C)cc2CN1Cc1ccc(C(F)(F)F)cc1` ): < 6.00

***
Recorded pKi (compound `CCS(=O)(=O)n1cc(CNC(=O)c2cnc3c(c2)CN(Cc2ccc(C(F)(F)F)cc2)[C@H]3C(C)C)cn1` ): > 7.00

---

TGT: full-length RORγt in Jurkat cells (Homo sapiens (Human))
Sequence (P51449 other isoform, or with tags, fused parts or gaps): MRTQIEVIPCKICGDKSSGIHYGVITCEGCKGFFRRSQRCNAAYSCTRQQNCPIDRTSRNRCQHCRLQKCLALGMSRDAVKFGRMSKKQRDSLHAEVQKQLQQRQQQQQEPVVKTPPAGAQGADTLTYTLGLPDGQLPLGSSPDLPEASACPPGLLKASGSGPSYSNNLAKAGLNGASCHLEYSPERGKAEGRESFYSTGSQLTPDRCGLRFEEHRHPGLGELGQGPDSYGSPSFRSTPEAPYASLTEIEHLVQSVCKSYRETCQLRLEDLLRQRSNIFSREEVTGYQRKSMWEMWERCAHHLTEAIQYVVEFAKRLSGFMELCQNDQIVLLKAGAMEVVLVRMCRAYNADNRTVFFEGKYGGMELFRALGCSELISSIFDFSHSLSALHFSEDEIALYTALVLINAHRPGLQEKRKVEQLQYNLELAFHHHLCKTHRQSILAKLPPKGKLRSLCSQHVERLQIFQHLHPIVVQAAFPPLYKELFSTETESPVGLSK
ASSAY NAME: RORγt 5×RORE Assay in Jurkat Cells (Assay 2)
CONDITION DETAILS: Nanoluc luciferase reporter, 16-18 hrs, read-out: RORγt5X IC50 Range*
pIC50: −log10 of the molar value.
ENDPOINT NAME: pIC50

Recorded pIC50 (compound `CCS(=O)(=O)n1cc(CNC(=O)c2cnc3c(c2)CN(Cc2ccc(C(F)(F)F)cc2)[C@H]3C(C)C)cn1` ): 6.00 to 7.00

Just for reference, patent US10399976B2 is where these values come from.
